Numbers sourced from ChEMBL document CHEMBL4196174.

- experimentDescription: Cytotoxicity against African green monkey Vero cells assessed as cell growth inhibition after 4 days by MTS/PMS method
- Type: cell-based
- experimentalSetup: chlorocebus sabaeus, Vero cells
label 1 if CC50 at 96 h is below 20 µM. label 0 if not; exact matches included in label 0.

// known answers, use as guide
| compound | discreteLabel |
| --- | --- |
| COc1cccc(NC(C(=O)c2c[nH]c3ccccc23)c2ccc3nccnc3c2)c1 (stereo unspecified) | label 1 |
| COc1cc(NC(C(=O)c2c[nH]c3ccccc23)c2cccnc2)cc(OC)c1 (stereo unspecified) | label 0 |
| COc1cc(NC(C(=O)c2c[nH]c3ccccc23)c2ccccc2)cc(OC)c1 (single isomer, unassigned; (+)) | label 1 |
| O=C(c1c[nH]c2ccccc12)C(Nc1cccnc1)c1ccccc1 (stereo unspecified) | label 0 |

Lab note: confirm whether the reported CC50 at 96 h for this compound is below 20 µM, equality not counting. compound: COc1cccc(NC(C(=O)c2c[nH]c3cccc(Cl)c23)c2ccccc2)c1 (stereo unspecified)
label 1
